- subject of test: Androgen receptor (Homo sapiens) (UniProt P10275)
- Sequence (P10275 whole entry, looked up): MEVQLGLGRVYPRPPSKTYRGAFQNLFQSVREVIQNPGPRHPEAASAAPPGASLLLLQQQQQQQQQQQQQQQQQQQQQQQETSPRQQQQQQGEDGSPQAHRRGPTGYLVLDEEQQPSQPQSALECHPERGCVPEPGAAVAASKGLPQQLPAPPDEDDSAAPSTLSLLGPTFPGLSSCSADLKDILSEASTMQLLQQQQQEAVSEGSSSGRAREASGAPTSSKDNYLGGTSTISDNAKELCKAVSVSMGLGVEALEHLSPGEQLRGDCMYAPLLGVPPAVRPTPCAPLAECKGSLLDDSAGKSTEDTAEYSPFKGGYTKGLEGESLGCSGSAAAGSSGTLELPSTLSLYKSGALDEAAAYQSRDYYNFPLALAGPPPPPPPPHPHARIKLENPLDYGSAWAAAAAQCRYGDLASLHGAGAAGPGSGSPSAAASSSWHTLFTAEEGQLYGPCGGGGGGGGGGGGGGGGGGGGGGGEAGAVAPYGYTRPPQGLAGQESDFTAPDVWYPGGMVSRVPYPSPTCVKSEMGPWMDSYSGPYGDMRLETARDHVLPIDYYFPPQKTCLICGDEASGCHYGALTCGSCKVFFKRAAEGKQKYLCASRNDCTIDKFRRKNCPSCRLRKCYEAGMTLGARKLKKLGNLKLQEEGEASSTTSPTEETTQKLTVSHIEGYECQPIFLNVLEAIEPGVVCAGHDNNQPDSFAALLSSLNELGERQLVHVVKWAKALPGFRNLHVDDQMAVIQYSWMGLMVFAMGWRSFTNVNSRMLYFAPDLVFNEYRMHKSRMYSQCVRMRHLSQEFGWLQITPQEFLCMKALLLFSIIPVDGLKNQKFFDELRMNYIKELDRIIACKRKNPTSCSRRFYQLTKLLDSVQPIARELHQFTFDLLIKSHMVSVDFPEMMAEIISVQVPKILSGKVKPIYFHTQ
- measurement protocol: qHTS assay to identify small molecule antagonists of the androgen receptor (AR) signaling pathway using the MDA cell line in the presence of 0.5 nM R1881 (AID 1259243); note: nearly all actives have a fitted effect of over 50% in size
- condition details: MDA-kb2 MMTV-luciferase, R1881 0.5 nM, 16 h; series mostly up to 92.4 µM
Records with an inconclusive call do not appear. The source made the active and inactive calls. Calls come from the whole dose curve; as a rule, active = well fitted inhibition curve with a large enough effect in the repeat runs; inconclusive = weak or mixed curves; inactive = no such curve, though single readings can be large or run the other way.
Output constraint: value belongs to true = active, false = inactive

Here are 5 compounds together with their reported answers.
CC1=C(C(=O)Nc2ccccc2)SCCO1 | false
CNC(=O)Oc1cccc2c1OC(C)(C)C2 | false
O=[N+]([O-])c1ccc(Cl)c([N+](=O)[O-])c1 | true
Clc1cccc(C(Cl)(Cl)Cl)n1 | false
O=C(O)c1nn(Cc2ccc(Cl)cc2Cl)c2ccccc12 | false

Challenge: So what was the verdict on CCOP(=S)(OCC)OP(=S)(OCC)OCC in this test?
Response given: false

Challenge: Identify the outcome logged in this assay for the compound shown: O=[N+]([O-])/N=C1\NCCN1Cc1ccc(Cl)nc1
Response given: false

Challenge: Recorded test call requested for COP(=S)(OC)Oc1ccc(S(=O)(=O)N(C)C)cc1
Response given: false

Challenge: Would you mind telling me which call this test gave C=CC(Cl)CCl (stereo not given) ?
Response given: false

Challenge: Please indicate how the test categorized S=c1[nH]c2ccccc2[nH]1 .
Response given: false

====

- measurement protocol: qHTS assay to identify small molecule agonists of the hypoxia (HIF-1) signaling pathway - cell viability counter screen (AID 1224844); note: nearly all actives have a fitted effect of over 50% in size
- condition details: HRE-bla ME-180 viability, CellTiter-Glo luminescence, 17 h; series mostly up to 76.8 µM
Inconclusive results are not listed. Calls of active or inactive are those of the source. The call rests on the fitted dose curve.
test readout: outcome

Oc1ccc(Cl)cc1Cl | inactive
CCC1(c2ccc(N)cc2)CCC(=O)NC1=O (stereo not given) | inactive
O=[N+]([O-])c1ccc(Nc2ccccc2)cc1 | inactive
CN(C)c1nc(=O)n(C2CCCCC2)c(=O)n1C | inactive
CCCCOC(=O)COC(=O)c1ccccc1C(=O)OCCCC | inactive

Can you give me outcome for all of these, one by one?
1. ClC(Cl)(Cl)Br
2. CC(C)(O)C#N

Response given:
1: inactive; 2: inactive

====

- measurement protocol: qHTS assay for small molecules that induce genotoxicity in human embryonic kidney cells expressing luciferase-tagged ATAD5 (AID 651632); note: nearly all actives have a fitted effect of over 15% in size
- condition details: HEK293T ATAD5-luciferase induction, 16 h; series mostly up to 83.3 µM
Records with an inconclusive call do not appear. Active and inactive are the calls of the source. Calls follow the shape of the dose curve; as a rule, active = well fitted activation curve with a large enough effect in the repeat runs; inconclusive = weak or mixed curves; inactive = no such curve, though single readings can be large or run the other way.
Give one outcome, nothing more. List: label 1 = active, label 0 = inactive

Challenge: Which result was noted for this compound in the test: O=[N+]([O-])c1ccc(Nc2ccccc2)cc1
Response given: label 0

Challenge: Recorded call for CCOS(=O)(=O)OCC ?
Response given: label 0

Challenge: Hi, sorry to bother you, what did the test record for C[N+](C)(C)CC(=O)O ?
Response given: label 0

====

- measurement protocol: qHTS assay to identify small molecule agonists of the estrogen receptor alpha (ER-alpha) signaling pathway in the presence of an antagonist - cell viability counter screen (AID 1259386);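 note: cells exposed to compounds for 22 h at 37 °C before the viability read; nearly all actives have a fitted effect of over 30% in size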
- condition details: VM7Luc4E2 viability, CellTiter-Fluor fluorescence, 22 h; series mostly up to 92.4 µM
Results filed as inconclusive are left out. Activity calls are given as the source filed them. Calls follow the shape of the dose curve; as a rule, active = well fitted cell-killing curve with a large enough effect in the repeat runs; inconclusive = weak or mixed curves, or effect the other way; inactive = no such curve, though single readings can be large or run the other way.
Select the matching outcome among active, inactive

Solved cases below.
ClCc1ccccn1 | inactive
O=P(OCCCl)(OCCCl)OCCCl | inactive
CCOS(=O)(=O)OCC | inactive
c1ccc(C2CO2)cc1 (configuration not stated) | inactive
O=NN(c1ccccc1)c1ccccc1 | inactive

Would you kindly look at the next entry?
Challenge: Hi, do you know how Cc1cc(Cl)ccc1N=CN(C)C came out in this test?
Response given: inactive

====

- measurement protocol: qHTS assay to identify small molecule antagonists of the glucocorticoid receptor (GR) signaling pathway - cell viability counter screen (AID 720693); note: nearly all actives have a fitted effect of over 55% in size
- condition details: GR-bla HeLa viability, CellTiter-Glo luminescence, 18 h, with 5 nM dexamethasone present; series mostly up to 58.5 µM
- Text: National Center for Advancing Translational Sciences [NCATS] NIH Chemical Genomics Center [NCGC] U.S. Environmental Protection Agency [EPA] National Institutes of Environmental Health Sciences [NIEHS] National Toxicology Program [NTP] U.S. Food and Drug Administration [FDA] The Glucocorticoid receptor (GR) is one of the members of the nuclear receptor family of ligand-dependent transcription factors. […] The activation of the reporter gene under culture conditions can be detected by fluorescence intensity. […]
Results filed as inconclusive are left out. The source made the active and inactive calls. Calls follow the shape of the dose curve; as a rule, active = well fitted cell-killing curve with a large enough effect in the repeat runs; inconclusive = weak or mixed curves, or effect the other way; inactive = no such curve, though single readings can be large or run the other way.
Hi! Could you answer with just one of these? y for active, n for inactive

CS(=O)(=O)NC(=O)c1cc(Oc2ccc(C(F)(F)F)cc2Cl)ccc1[N+](=O)[O-] | n
OC(c1ccc(Cl)cc1)(c1cncnc1)c1ccccc1Cl (stereo unspecified) | n
CCOP(=O)(O)OCC (tested in a mixture with another compound) | y
O=C1Nc2ccc(Cl)cc2C(c2ccccc2)=NC1O (stereo unspecified) | n
C[C@]12CCC(=O)C=C1CC[C@@H]1[C@@H]2CC[C@@]2(C)[C@H]1CC[C@]2(C)O | y
COP(=S)(OC)Oc1ccc(Sc2ccc(OP(=S)(OC)OC)cc2)cc1 | n
O=NN(c1ccccc1)c1ccccc1 | n
Nc1ccc([N+](=O)[O-])cc1N | n
[CH3][Sn]([Cl])([Cl])[Cl] | n
Brc1ccc(Br)cc1 | n

Kindly consider the entry below.
Challenge: What is the recorded call for this compound in the test? CC(C)=CC1C(C(=O)OCN2C(=O)C3=C(CCCC3)C2=O)C1(C)C (stereo unspecified)
Response given: n

====

- measurement protocol: qHTS assay for small molecules that induce genotoxicity in human embryonic kidney cells expressing luciferase-tagged ATAD5 (AID 651632); note: nearly all actives have a fitted effect of over 15% in size
- condition details: HEK293T ATAD5-luciferase induction, 16 h; series mostly up to 83.3 µM
Results filed as inconclusive are left out. Calls of active or inactive are those of the source. The call rests on the fitted dose curve; in most records, active means well fitted activation curve with a large enough effect in the repeat runs; inconclusive means weak or mixed curves; inactive means no such curve, though single readings can be large or run the other way.
Mark one answer only. Choices: active, inactive

CN(C)P(=O)(N(C)C)N(C)C | inactive

Challenge: Tell me the assay call for CC(C)(c1ccccc1)c1ccc(O)cc1 please.
Response given: inactive

Challenge: Assay outcome for CCCCCCCC[N+](C)(CCCCCCCC)CCCCCCCC : what was it?
Response given: inactive

Challenge: Record request — test call for O=[N+]([O-])c1ccc(Cl)c([N+](=O)[O-])c1
Response given: active

Challenge: Short answer needed: outcome of this test for N#CC(c1ccccc1)c1ccccc1 ?
Response given: inactive

Challenge: Hello, I am checking results. What call was entered for C[C@]12CC[C@H]3[C@@H](CCC4=CC(=O)CC[C@@H]43)[C@@H]1CC[C@@H]2O ?
Response given: inactive

Challenge: Could you please tell me the result logged for O=C(O)CF in this assay?
Response given: inactive

Challenge: Which outcome was assigned to CCOP(=S)(OCC)SCSC(C)(C)C in this test?
Response given: inactive

Challenge: Hi, sorry to bother you, what did the test record for CCCCOC(=O)COC(=O)c1ccccc1C(=O)OCCCC ?
Response given: inactive

Challenge: Each molecule tested received a call. Report the one for CCCCCCCCCCCCCl .
Response given: inactive

Challenge: Dear all, I need the recorded test outcome for CCC1(c2ccc(N)cc2)CCC(=O)NC1=O (centres undefined) , thank you.
Response given: inactive

====

- measurement protocol: qHTS assay for identifying genotoxic compounds that show differential cytotoxicity against isogenic chicken DT40 cell lines with known DNA damage response pathways - wild type cell line (AID 743012); note: nearly all actives have a fitted effect of over 60% in size; note: potency is the fitted concentration of half-maximal effect
- condition details: DT40 wild type chicken cells viability, CellTiter-Glo, 40 h; series mostly up to 68.4 µM
Inconclusive results are not listed. Calls of active or inactive are those of the source. Calls come from the whole dose curve; as a rule, active = well fitted cell-killing curve with a large enough effect in the repeat runs; inconclusive = weak or mixed curves, or effect the other way; inactive = no such curve, though single readings can be large or run the other way.
test readout: Potency

Recorded Potency, per entry:
CC(C)Nc1nc(Cl)nc(NC(C)C)n1 | inactive
OC(c1ccc(Cl)cc1)(c1cncnc1)c1ccccc1Cl (stereo not drawn) | 10.9 µM (active)
COP(=S)(OC)Oc1ccc(S(=O)(=O)N(C)C)cc1 | 19.3 µM (active)
CC(C)COC(=O)c1ccccc1C(=O)OCC(C)C | 27.3 µM (active)
O=NN(c1ccccc1)c1ccccc1 | inactive
N#Cc1cccnc1 | inactive
S=c1[nH]c2ccccc2[nH]1 | inactive

Please look at the following compound next.
Challenge: Give its Potency value. Item: C=CC(Cl)CCl (stereo not drawn)
Response given: inactive

====

- measurement protocol: qHTS assay to identify small molecule antagonists of the estrogen receptor beta (ER-beta) signaling pathway - cell viability counter screen (AID 1259382);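 note: HEK293T cells carrying ER-beta-UAS-bla reporter stimulated with estradiol; nearly all actives have a fitted effect of over 55% in size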
- condition details: ER-beta-UAS-bla HEK293T viability, CellTiter-Glo luminescence, 16 h; series mostly up to 92.4 µM
Results filed as inconclusive are left out. Active and inactive are the calls of the source. Calls follow the shape of the dose curve; as a rule, active = well fitted cell-killing curve with a large enough effect in the repeat runs; inconclusive = weak or mixed curves; inactive = flat fitted curve, though single readings scatter.
Give your call using only these classes: Y = active, N = inactive

These solved cases illustrate the format of a correct answer.
CC(C)CON=O | N
Cl | N
ClCc1ccccn1 | N

Challenge: Lab log entry: OCCOCCO — outcome as called in the assay?
Response given: N

Challenge: Please share the test call associated with O=NN1CCOCC1 .
Response given: N

Challenge: Fill in: this test's call for c1ccc2c(c1)Nc1ccccc1S2 is ___
Response given: N

Challenge: Hey, what did the test say about Cn1c(-c2ccccc2)cc(-c2ccccc2)[n+]1C ?
Response given: N

Challenge: Record request — test call for O=[N+]([O-])/N=C1\NCCN1Cc1ccc(Cl)nc1
Response given: N

Challenge: Hi, do you know how C[C@]12CCC(=O)C=C1CC[C@@H]1[C@@H]2CC[C@@]2(C)[C@H]1CC[C@]2(C)O came out in this test?
Response given: N
